Items are presented alongside their recorded AC50.
Target: human CYP2C9 (Homo sapiens, UniProt P11712)
Sequence (P11712 whole entry): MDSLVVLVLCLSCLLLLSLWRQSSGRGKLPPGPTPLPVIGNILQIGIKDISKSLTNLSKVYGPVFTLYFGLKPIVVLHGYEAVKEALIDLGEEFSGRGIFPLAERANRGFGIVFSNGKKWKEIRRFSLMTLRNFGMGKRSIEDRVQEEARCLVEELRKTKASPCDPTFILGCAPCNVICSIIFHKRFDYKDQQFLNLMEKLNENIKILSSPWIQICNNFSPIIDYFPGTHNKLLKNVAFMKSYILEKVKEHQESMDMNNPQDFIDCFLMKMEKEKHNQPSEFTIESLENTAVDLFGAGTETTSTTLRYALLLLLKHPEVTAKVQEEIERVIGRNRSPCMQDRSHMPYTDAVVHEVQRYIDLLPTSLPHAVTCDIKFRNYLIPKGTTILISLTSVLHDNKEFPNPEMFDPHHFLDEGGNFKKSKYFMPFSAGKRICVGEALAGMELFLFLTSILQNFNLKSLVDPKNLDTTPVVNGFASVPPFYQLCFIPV
Experiment: biochemical
Settings: CYP2C9 AC50 (half-maximal activity concentration)
quantity-name: AC50 (µM)

• N#Cc1c[nH]cc1-c1cccc2c1OC(F)(F)O2 [Fludioxonil] = 18.6
• COC(=O)C(C)Oc1ccc(Oc2ccc(Cl)cc2Cl)cc1 (stereo not drawn) [Diclofop-methyl] = 27.5
• O=[N+]([O-])c1cc(C(F)(F)F)cc([N+](=O)[O-])c1Cl = 18
• O=C(OCc1ccccc1)c1ccccc1 [Benzyl benzoate] = 27.7
• CC(=O)O[C@H]1CC[C@@]2(C)C(=CC[C@@H]3[C@@H]2CC[C@]2(C)C(=O)CC[C@@H]32)C1 [Dehydroepiandrosterone acetate] = 28.4
• Cc1cc(O)cc(C)c1Cl [4-Chloro-3,5-dimethylphenol] = 17.4
• CCCCCC(C=O)=Cc1ccccc1 [Pentylcinnamaldehyde] = 37
• O=C(c1ccccc1)c1ccc(O)cc1 [4-Hydroxybenzophenone] = 2.7
• CCOC(=O)C(O)(c1ccc(Cl)cc1)c1ccc(Cl)cc1 [Chlorobenzilate] = 7.68
